- target or test system: T1, hPRLR.mFc (soluble dimeric human PRLR) (Homo sapiens, UniProt P16471)
- T1 construct: dimeric (hPRLR.mFc)
- T1 sequence (P16471 with tags, fused parts or gaps): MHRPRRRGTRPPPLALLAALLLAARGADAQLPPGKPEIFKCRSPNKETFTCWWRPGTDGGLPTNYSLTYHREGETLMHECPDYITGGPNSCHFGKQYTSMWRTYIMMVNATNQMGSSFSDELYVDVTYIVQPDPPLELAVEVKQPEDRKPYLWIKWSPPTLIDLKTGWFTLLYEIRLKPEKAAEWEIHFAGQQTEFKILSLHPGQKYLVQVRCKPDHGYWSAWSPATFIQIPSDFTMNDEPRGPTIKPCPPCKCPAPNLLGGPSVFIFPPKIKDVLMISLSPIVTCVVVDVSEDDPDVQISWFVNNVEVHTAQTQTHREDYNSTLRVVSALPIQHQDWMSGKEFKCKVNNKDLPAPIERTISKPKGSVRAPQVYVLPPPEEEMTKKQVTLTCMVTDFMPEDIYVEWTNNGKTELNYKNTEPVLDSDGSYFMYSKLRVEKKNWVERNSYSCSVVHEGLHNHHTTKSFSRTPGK
- experimental protocol: Surface plasmon resonance (Biacore T200), mAb-capture format
- Assay type: binding
- conditions used: 37° C., antibody-capture format, analyte hPRLR.mFc
recorded endpoint: T½

Please report the recorded T½ for H1H6800P: anti-PRLR antibody, human IgG1 Fc; HCVR/LCVR SEQ ID NOs 194/202 (antibody, V domains shown, human IgG1 Fc) VH: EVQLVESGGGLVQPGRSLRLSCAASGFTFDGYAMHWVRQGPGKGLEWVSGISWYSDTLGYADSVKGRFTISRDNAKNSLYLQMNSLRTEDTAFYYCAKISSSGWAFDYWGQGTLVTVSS VL: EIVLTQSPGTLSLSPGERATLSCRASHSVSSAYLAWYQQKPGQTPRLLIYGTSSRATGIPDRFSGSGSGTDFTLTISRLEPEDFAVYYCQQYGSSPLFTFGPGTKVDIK .
1.32 h
